B1: EHMT1 (parent)
chain: EEINKNISDFGRQQLLPPFPSLHQ

# Variants of: B1
# assay-details: protein stability index of a GFP-peptide fusion (GPS, HEK-293T) (PSI 1-6); higher = more stable;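 note: lentivirally expressed fusions sorted by FACS into six bins by GFP to DsRed ratio, PSI derived from sequencing read proportions per bin multiplied by bin number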
# recorded-conditions: c terminus: a fixed tail appended
Decision: protein stability index compared against 3; not below it gives Met, below it gives Not met.

Field: example entries. Status: answers known.
- variant-name: "S21G"
  discrete-label: "Not met"
- variant-name: "F10G"
  discrete-label: "Met"
- variant-name: "E2L"
  discrete-label: "Not met"
- variant-name: "H23W"
  discrete-label: "Not met"

Let's switch to this variant now.
Exercise: Does `Q24S` have a reported protein stability index of at least 3?
Solution: Not met
